Biological target: RAC-alpha serine/threonine-protein kinase (Homo sapiens)
Sequence (P31749 whole entry): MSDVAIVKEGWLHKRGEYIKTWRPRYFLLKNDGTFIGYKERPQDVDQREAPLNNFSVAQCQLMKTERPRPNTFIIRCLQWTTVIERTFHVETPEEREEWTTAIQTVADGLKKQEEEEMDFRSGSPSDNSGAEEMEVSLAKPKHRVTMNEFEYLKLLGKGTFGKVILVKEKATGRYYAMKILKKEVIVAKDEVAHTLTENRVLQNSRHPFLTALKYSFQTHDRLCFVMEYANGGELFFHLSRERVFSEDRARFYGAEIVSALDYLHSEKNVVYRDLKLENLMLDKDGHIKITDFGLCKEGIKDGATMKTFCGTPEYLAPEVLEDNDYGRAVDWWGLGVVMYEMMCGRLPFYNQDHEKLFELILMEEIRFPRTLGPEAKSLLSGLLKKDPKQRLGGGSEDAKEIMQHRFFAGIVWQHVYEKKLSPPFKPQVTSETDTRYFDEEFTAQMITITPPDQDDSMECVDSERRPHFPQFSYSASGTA
Assay: Inhibition of AKT (unknown origin) at 10 uM after 30 mins by fluorescence assay relative to control
Activity calls are given as the source filed them. The calls are words filed in the database; no cut-off is given here.
ENDPOINT: inhibition

The cases that follow already have their inhibition on record.
O=S(=O)(Nc1ccc(O)c(Sc2ncn[nH]2)c1)c1ccc2ccccc2c1 = inactive
O=S(=O)(Nc1ccc(O)c(Sc2ncn[nH]2)c1)c1c(Cl)cccc1Cl = 48.4%
CS(=O)(=O)Nc1ccc(O)c(Sc2ncn[nH]2)c1 = 14.3%
O=C(Nc1ccc(O)c(Sc2ncnc3nc[nH]c23)c1)c1ccc([N+](=O)[O-])cc1 = 64.6%

Problem: I am curious: what inhibition value has been reported for Cc1ccc(S(=O)(=O)Nc2ccc(O)c(Sc3nc[nH]n3)c2)cc1 ?
Solution: 29.8%

Problem: Bench note: what inhibition did Cn1nnnc1Sc1cc(NS(=O)(=O)c2ccc([N+](=O)[O-])cc2)ccc1O show?
Solution: 11.5%

Problem: Form field: reported inhibition of O=[N+]([O-])c1ccc(S(=O)(=O)Nc2ccc(O)c(Sc3nncs3)c2)cc1
Solution: 14.9%

Problem: // lookup inhibition for CN[C@@H]1C[C@H]2O[C@@](C)([C@@H]1OC)n1c3ccccc3c3c4c(c5c6ccccc6n2c5c31)C(=O)NC4
Solution: 96.5%

Problem: Consider the compound shown here: Cn1nnnc1Sc1cc(NC(=O)c2ccc([N+](=O)[O-])cc2)ccc1O What is its recorded inhibition?
Solution: 10.1%

Problem: GET /values?readout=inhibition&item= Cc1nnc(Sc2cc(NS(=O)(=O)c3ccc([N+](=O)[O-])cc3)ccc2O)s1
Solution: 14.2%

Problem: So what's the measured inhibition for this one? Cc1nnc(Sc2cc(NC(=O)c3ccc([N+](=O)[O-])cc3)ccc2O)s1
Solution: 12.3%

Problem: Which inhibition reading was recorded for the compound COc1ccc(S(=O)(=O)Nc2ccc(O)c(Sc3nc[nH]n3)c2)cc1 ?
Solution: 12.1%

Source of measurements: ChEMBL document CHEMBL2434840
